Target: soluble guanylate cyclase (human GUCYA3/GUCYB3) overexpressed in CHO cells (Homo sapiens, UniProt Q02108+Q02153)
Sequence (Q02108 1-690 partner): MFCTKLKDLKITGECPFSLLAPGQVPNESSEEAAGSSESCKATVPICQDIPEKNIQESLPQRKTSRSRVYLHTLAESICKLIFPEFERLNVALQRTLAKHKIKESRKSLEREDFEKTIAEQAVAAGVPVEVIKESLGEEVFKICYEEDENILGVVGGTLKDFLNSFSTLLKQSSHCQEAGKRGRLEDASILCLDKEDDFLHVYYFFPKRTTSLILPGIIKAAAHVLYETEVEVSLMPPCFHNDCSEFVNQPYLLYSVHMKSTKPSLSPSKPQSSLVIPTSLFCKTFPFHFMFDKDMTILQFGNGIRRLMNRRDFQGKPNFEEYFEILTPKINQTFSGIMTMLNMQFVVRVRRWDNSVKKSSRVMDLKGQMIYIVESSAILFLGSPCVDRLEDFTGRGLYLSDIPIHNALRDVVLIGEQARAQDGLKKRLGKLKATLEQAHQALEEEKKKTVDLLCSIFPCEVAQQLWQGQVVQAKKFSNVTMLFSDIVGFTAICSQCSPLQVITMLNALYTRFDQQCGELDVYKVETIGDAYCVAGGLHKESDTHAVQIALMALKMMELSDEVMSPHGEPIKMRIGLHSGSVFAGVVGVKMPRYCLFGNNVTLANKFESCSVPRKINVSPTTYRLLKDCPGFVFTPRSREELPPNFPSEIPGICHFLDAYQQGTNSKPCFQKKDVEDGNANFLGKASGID
Sequence (Q02153 1-619): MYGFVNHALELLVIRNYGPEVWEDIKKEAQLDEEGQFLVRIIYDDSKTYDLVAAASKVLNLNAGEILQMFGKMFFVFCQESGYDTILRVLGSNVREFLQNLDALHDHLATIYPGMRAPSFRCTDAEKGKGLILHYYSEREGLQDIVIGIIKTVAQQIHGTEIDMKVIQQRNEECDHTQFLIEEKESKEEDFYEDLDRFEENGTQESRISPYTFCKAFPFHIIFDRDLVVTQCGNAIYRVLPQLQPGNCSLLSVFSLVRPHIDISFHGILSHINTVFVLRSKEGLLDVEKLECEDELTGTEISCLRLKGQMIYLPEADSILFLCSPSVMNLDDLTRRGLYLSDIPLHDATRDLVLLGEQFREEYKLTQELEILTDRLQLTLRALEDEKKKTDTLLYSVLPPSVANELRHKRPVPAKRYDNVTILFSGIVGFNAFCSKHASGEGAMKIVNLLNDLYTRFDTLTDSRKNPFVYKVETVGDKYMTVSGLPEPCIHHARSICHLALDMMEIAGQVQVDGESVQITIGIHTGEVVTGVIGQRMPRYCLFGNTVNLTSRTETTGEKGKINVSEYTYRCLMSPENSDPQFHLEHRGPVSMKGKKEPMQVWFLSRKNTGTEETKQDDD
Test: CHO cellular assay (cGMP production, HTRF)
Details: CHO K1 clone 8E10 overexpressing human sGC, Cisbio HTRF, 1 h room temperature, 1 mM IBMX, 20 uM ODQ, minimum quantification limit 0.5 nM
Measured pEC50 of individual entries
Expect pEC50 as a plain number equal to -log10 of the molar concentration.

CCc1c(C)sc(-c2cccc(-n3ncc(C(=O)O)c3C(F)(F)F)n2)c1COc1ccc(C2CCN(C(=O)C3CC3)CC2)cc1C :: 9.00
Cc1cc(COc2ccc(C3CCN(C(=O)C4CC4)CC3)c(C(C)C)c2)c(-c2cccc(-n3ncc(C(=O)O)c3C(F)(F)F)n2)s1 :: 9.00
Cc1cc(C2CCN(CC(F)(F)F)CC2)ccc1OCc1ccsc1-c1cccc(-n2ncc(C(=O)O)c2C(F)(F)F)n1 :: 9.00
Cc1cc(COc2ccc(C3CCN(C(=O)C4CC4)CC3)c(C)c2)c(-c2cccc(-n3ncc(C(=O)O)c3C(F)(F)F)n2)s1 :: 8.70

Let us examine a further case.
-- ask Find the recorded pEC50 belonging to `Cc1cc(C2CCN(C3COC3)CC2)ccc1OCc1ccsc1-c1cccc(-n2ncc(C(=O)O)c2C(F)(F)F)n1` and report it.
-- reply 7.17

FYI, the data here is from patent US9765067B2.
